Recorded pIC50 by entry
- subject.of.test: HIV-integrase (Human immunodeficiency virus type 1 group M subtype B)
- Construct: Recombinant integrase (0.26 ng) was incubated with the beads
- assay: HIV-Integrase Inhibition Activity (SPA bead strand transfer assay)
- condition.summary: recombinant integrase, biotin labeled substrate DNA on SPA beads, P33 labeled target DNA; read-out: Activity (IC50 against HIV-integrase)
pIC50: −log10 of the molar value.

molecular.string | subject.of.test | pIC50
COC(=O)N1CCN(S(=O)(=O)c2cc(F)ccc2CNC(=O)c2nc3n(c(=O)c2O)CCOC3(C)C)CC1 | HIV-integrase (Human immunodeficiency virus type 1 group M subtype B) | 7.00 to 8.70
CC1(C)OCCn2c1nc(C(=O)NCc1ccc(F)cc1S(=O)(=O)N1CCCC1)c(O)c2=O | HIV-integrase (Human immunodeficiency virus type 1 group M subtype B) | 7.00 to 8.70
CN(C)C(=O)N1CCN(S(=O)(=O)c2cc(F)ccc2CNC(=O)c2nc3n(c(=O)c2O)CCOC3(C)C)CC1 | HIV-integrase (Human immunodeficiency virus type 1 group M subtype B) | 7.00 to 8.70
CN1CCN(S(=O)(=O)c2cc(F)ccc2CNC(=O)c2nc3n(c(=O)c2O)CCOC32CCC2)CC1 | HIV-integrase (Human immunodeficiency virus type 1 group M subtype B) | 7.00 to 8.70
CC1(C)OCCn2c1nc(C(=O)NCc1ccc(F)cc1S(=O)(=O)N1CCOCC1)c(O)c2=O | HIV-integrase (Human immunodeficiency virus type 1 group M subtype B) | 7.00 to 8.70
CC1(C)OCCn2c1nc(C(=O)NCc1ccc(F)cc1S(=O)(=O)N1CCNCC1)c(O)c2=O | HIV-integrase (Human immunodeficiency virus type 1 group M subtype B) | 7.00 to 8.70
O=C(NCc1ccc(F)cc1S(=O)(=O)N1CCOCC1)c1nc2n(c(=O)c1O)CCCC21CCCC1 | HIV-integrase (Human immunodeficiency virus type 1 group M subtype B) | 7.00 to 8.70
